Measured values drawn from PubChem BioAssay AID463193 for this set.

# protocol.notes: autophagy modulators in MEF cells, primary screen, imaging, high-content, MEF GFP-LC3 (AID 463193)
# assay.setup: MEF GFP-LC3 puncta imaging, at 10 µM; active compounds read high
Hit rate of the full screen: of about 190,000 compounds, about 1,900 (1%) were called active. The full list was thinned out, with actives kept by preference.
Recorded % cells with GFP-LC3 spots determines the group label, using bottom range: < 2%; center range: ≥ 2% and < 10%; top range: ≥ 10%

molecule="c1ccc(C2c3[nH]c4ccccc4c3CCN2Cc2cccn2-c2cccnc2)nc1 (stereo unspecified)" assigned_class="bottom range"
molecule=CCc1nnc(NC(=O)CCCSc2nc3ccccc3[nH]2)s1 assigned_class="bottom range"
molecule=O=C(CN(c1ccccc1)S(=O)(=O)c1ccc(Cl)cc1)Nc1ccccc1C(=O)N1CCCC1 assigned_class="center range"
molecule=C/C(=N/Nc1ccc(Cl)cc1)c1cnnc(-c2ccccc2)n1 assigned_class="top range"
molecule=O=C(Nc1ccccc1C(=O)N1CCOCC1)c1ccc(Cl)cc1 assigned_class="bottom range"
molecule=Cc1cc(C)c2c(n1)nn1c(N3CCN(c4cccc(Cl)c4)CC3)cc(C)nc21 assigned_class="top range"
molecule=CCOC(=O)N1CCN(C(=O)CSc2nc(C)nc3c2c(=O)n(C)c(=O)n3C)CC1 assigned_class="top range"
molecule=O=C(CCl)N(Cc1cccc([N+](=O)[O-])c1)c1cccc(Cl)c1 assigned_class="top range"
molecule=O=C(Cc1ccc(Cl)cc1)NCc1nc(-c2ccccc2)no1 assigned_class="bottom range"
molecule=O=C(Nc1ccccc1C(=O)N1CCCCCC1)c1ccccc1Cl assigned_class="top range"
molecule=CCCCN(CC)C(=O)c1ccccc1Oc1ccccc1 assigned_class="center range"
